B1: Azoarcus group I ribozyme (parent)
chain: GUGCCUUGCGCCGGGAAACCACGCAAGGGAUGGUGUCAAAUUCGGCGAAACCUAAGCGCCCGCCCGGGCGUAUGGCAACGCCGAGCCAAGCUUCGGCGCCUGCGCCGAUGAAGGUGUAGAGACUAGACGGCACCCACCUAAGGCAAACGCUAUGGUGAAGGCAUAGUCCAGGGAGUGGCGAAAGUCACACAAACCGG

- Variants of: B1
- ASSAY_TEXT: reverse-splicing fitness (ratio to wild type); higher = more active; in vitro selection; Mg2+ level not given
ENDPOINT_LABEL: reverse-splicing fitness
Please give only the number in your answer, with no unit.

VAR	RECORDED_VALUE
C82A A120U A145U C150G C169G U176A	0.00253
C82U A111U C150G C169A	0.00799
C82U A111U A145U C169A U176G	0.00592
C82A A111U A120C A145C C150G C169A U176A	0.00999
C82A A120C A145C C169U U176A	0.0135

Please look up its reverse-splicing fitness: C82U A111G A145C C150U C169U U176A
0.0119

Now this one: A111U A120C A145U C150A U176G
0.0114

Now this one: C82U A111U A120U C150U C169G
0.00465

Now this one: C82G A120G A145G C150U C169G U176G
0.00428
